System: M-1-P-producing enzyme
Assay: Maltose transfer reaction without phosphate, HPLC analysis of products
Type: biochemical, Corynebacterium glutamicum JCM1321
Conditions: 2.0% substrate, 0.16 U/mL enzyme, one hour at 37°C
Recorded Product (Peak area x 10^6): DP=10 by entry

Some entries whose results are on file:
- Molecule: "OC[C@H]1O[C@H](O[C@H]2[C@H](O)[C@@H](O)[C@@H](O[C@H]3[C@H](O)[C@@H](O)C(O)O[C@@H]3CO)O[C@@H]2CO)[C@H](O)[C@@H](O)[C@@H]1O (stereo partly shown) [Maltotriose]"
  Measurement: "0.00 x 10^6"
- Molecule: "OC[C@H]1OC(O)[C@H](O)[C@@H](O)[C@@H]1O (stereo partly shown) [Glucose]"
  Measurement: "0.00 x 10^6"
- Molecule: "OC[C@H]1O[C@H](O[C@H]2[C@H](O)[C@@H](O)[C@@H](O[C@H]3[C@H](O)[C@@H](O)[C@@H](O[C@H]4[C@H](O)[C@@H](O)[C@@H](O[C@H]5[C@H](O)[C@@H](O)[C@@H](O[C@H]6[C@H](O)[C@@H](O)C(O)O[C@@H]6CO)O[C@@H]5CO)O[C@@H]4CO)O[C@@H]3CO)O[C@@H]2CO)[C@H](O)[C@@H](O)[C@@H]1O (stereo partly shown) [Maltohexaose]"
  Measurement: "3.96 x 10^6"

What value of Product (Peak area x 10^6): DP=10 has been recorded for this entry: OC[C@H]1O[C@H](O[C@H]2[C@H](O)[C@@H](O)[C@@H](O[C@H]3[C@H](O)[C@@H](O)[C@@H](O[C@H]4[C@H](O)[C@@H](O)C(O)O[C@@H]4CO)O[C@@H]3CO)O[C@@H]2CO)[C@H](O)[C@@H](O)[C@@H]1O (stereo partly shown) [Maltotetraose]
0.00 x 10^6
